Source of measurements: ChEMBL document CHEMBL4613299

assay_name: Half life in CD1 mouse at 10 mg/kg, ip measured up to 7 hrs by LC-MS/MS analysis
Type: ADME, organism-based
applied_conditions: in vivo
value_type: half-life (h)
Please state the figure in h; there is no need to write the unit.

Exercise: Suppose we examine the compound `O=C(NCC1CCOCC1)c1n[nH]c2ccc(-c3cncc(CO)c3)cc12` ; what half-life value has been reported?
Solution: 2

###

assay_name: Half life in human pooled liver microsomes at 10 uM incubated in shaking water bath measured up to 60 mins in presence of NADPH by HPLC-MS/MS analysis
Format: ADME, Microsome
value_type: half-life at 10 µM

Exercise: Suppose we examine the compound `O=C(NCC1CCOCC1)c1n[nH]c2ccc(-c3cncc(CO)c3)cc12` ; what half-life at 10 µM value has been reported?
Solution: > 1 h
